Taken from patent US3941842A.

# LC50 Anopheles albimanus larvae annotations
# System: Anopheles albimanus larvae
# measurement-notes: LC50 to Anopheles albimanus larvae
# Assay type: in vivo, Anopheles albimanus Weid
Only the number, expressed in ppm, is required.

Sample records with LC50 Anopheles albimanus larvae:
[[record]]
compound = "CCOc1ccc(NC(c2ccc(Cl)cc2)C(Cl)(Cl)Cl)cc1 (stereo not shown)"
readout_units = "ppm"
measurement = 0.26

[[record]]
compound = "Cc1ccc(NC(c2ccc(C)cc2)C(Cl)(Cl)Cl)cc1 (stereo not shown)"
readout_units = "ppm"
measurement = 0.21

[[record]]
compound = "COc1ccc(C(Nc2ccc(C)cc2)C(Cl)(Cl)Cl)cc1 (stereo not shown)"
readout_units = "ppm"
measurement = 0.28

[[record]]
compound = "CCOc1ccc(NC(c2ccc(OCC)cc2)C(Cl)(Cl)Cl)cc1 (stereo not shown)"
readout_units = "ppm"
measurement = 0.28

[[record]]
compound = "COc1ccc(NC(c2ccc(C)cc2)C(Cl)(Cl)Cl)cc1 (stereo not shown)"
readout_units = "ppm"
measurement = 0.48

[[record]]
compound = "COc1ccc(NC(c2ccc(OC)cc2)C(Cl)(Cl)Cl)cc1 (stereo not shown)"
readout_units = "ppm"
measurement = 0.64

[[record]]
compound = "CCOc1ccc(C(Nc2ccc(Cl)cc2)C(Cl)(Cl)Cl)cc1 (stereo not shown)"
readout_units = "ppm"
measurement = 0.060


Would you kindly look at the next entry?
Lookup: LC50 Anopheles albimanus larvae / Anopheles albimanus larvae / Clc1ccc(NC(c2ccc(Cl)cc2)C(Cl)(Cl)Cl)cc1 (stereo not shown) 0.090

----------
# SR, Musca domestica Snaidm annotations
# Tested on: Musca domestica Snaidm
# measurement-notes: Topical LD50 to adult female SNAIDM houseflies
# test-context: synergistic ratio: LD50 alone/LD50 synergized with piperonyl butoxide

Sample records with SR, Musca domestica Snaidm:
[[record]]
compound = "COc1ccc(C(Nc2ccc(C)cc2)C(Cl)(Cl)Cl)cc1 (centres unmarked)"
subject_of_test = "Musca domestica Snaidm"
measurement = 4.1

[[record]]
compound = "CCOc1ccc(C(Nc2ccc(C)cc2)C(Cl)(Cl)Cl)cc1 (centres unmarked)"
subject_of_test = "Musca domestica Snaidm"
measurement = 5.0

[[record]]
compound = "CCOc1ccc(C(Nc2ccc(Cl)cc2)C(Cl)(Cl)Cl)cc1 (centres unmarked)"
subject_of_test = "Musca domestica Snaidm"
measurement = 1.8

[[record]]
compound = "Cc1ccc(NC(c2ccc(Cl)cc2)C(Cl)(Cl)Cl)cc1 (centres unmarked)"
subject_of_test = "Musca domestica Snaidm"
measurement = 4.1


Would you kindly look at the next entry?
Lookup: SR, Musca domestica Snaidm / Musca domestica Snaidm / Cc1ccc(C(Nc2ccc(Cl)cc2)C(Cl)(Cl)Cl)cc1 (centres unmarked) 4.3

----------
# Tested on: Female housefly
# measurement-notes: Metabolism of 3H-ethoxyaniline by female RSP housefly
# test-context: 24 hr after topical 1.0 μg 3H-ethoxyaniline (compound III); excreta
# Protocol: The compounds of the present invention were tested for insecticidal activity by standard methods, and compared with the insecticidal activities of DDT and symmetrical analogs of DDT, such methoxychlor. […] The biodegradability of an insecticide may be measured by administering measured doses of a tritium labeled test insecticide to a subject. […] The amount of each metabolite present may thus be measured by measuring the ^3 H at each separately resolved spot on the tlc plate. […]
endpoint-label: Female housefly, percent 3H in Excreta

[[record]]
compound = "CCOc1ccc(NC(c2ccc(OCC)cc2)C(Cl)(Cl)Cl)cc1 (stereo not shown)"
subject_of_test = "Female housefly"
measurement = "22.9%"


// lookup Female housefly, percent 3H in Excreta for CCOc1ccc(C(=O)C(Cl)Cl)cc1 [C2 H5 OC6 H4 C(O)CHCl2, p-ethoxydichloroacetophenone] 9.7%

Same lookup for CCOc1ccc(N)cc1 , please. 9.1%

Same lookup for Oc1ccc(NC(c2ccc(O)cc2)C(Cl)(Cl)Cl)cc1 (stereo not shown) , please. 5.7%

----------
# Topical LD50, Musca domestica Rsp, with pb annotations
# System: Musca domestica Rsp
# measurement-notes: Topical LD50 to adult female RSP houseflies
# test-context: RSP strain; synergized with piperonyl butoxide; topical
The number alone won't do; follow it with the unit.

Sample records with Topical LD50, Musca domestica Rsp, with pb:
[[record]]
compound = "Clc1ccc(NC(c2ccc(Cl)cc2)C(Cl)(Cl)Cl)cc1 (stereo not shown)"
subject_of_test = "Musca domestica Rsp"
measurement = "25 μg per g"

[[record]]
compound = "CCOc1ccc(C(Nc2ccc(OC)cc2)C(Cl)(Cl)Cl)cc1 (stereo not shown)"
subject_of_test = "Musca domestica Rsp"
measurement = "12.5 μg per g"

[[record]]
compound = "COc1ccc(C(Nc2ccc(C)c(C)c2)C(Cl)(Cl)Cl)cc1 (stereo not shown)"
subject_of_test = "Musca domestica Rsp"
measurement = "28.0 μg per g"


// lookup Topical LD50, Musca domestica Rsp, with pb for Cc1ccc(NC(c2ccc(Cl)cc2)C(Cl)(Cl)Cl)cc1 (stereo not shown) 30 μg per g

Same lookup for CCOc1ccc(NC(c2ccc(C)cc2)C(Cl)(Cl)Cl)cc1 (stereo not shown) , please. 19.5 μg per g

Same lookup for CCOc1ccc(C(Nc2ccccc2OCC)C(Cl)(Cl)Cl)c(OCC)c1 (stereo not shown) , please. 500 μg per g

Same lookup for COc1ccc(NC(c2ccc(Cl)cc2)C(Cl)(Cl)Cl)cc1 (stereo not shown) , please. 14.0 μg per g

Same lookup for Cc1ccc(C(Nc2ccc(Cl)cc2)C(Cl)(Cl)Cl)cc1 (stereo not shown) , please. 36.0 μg per g

Same lookup for COc1ccc(C(Nc2ccc(Cl)cc2)C(Cl)(Cl)Cl)cc1 (stereo not shown) , please. 12.0 μg per g

Same lookup for COc1ccc(NC(c2ccc(OC)cc2)C(Cl)(Cl)Cl)cc1 (stereo not shown) , please. 13.5 μg per g

----------
# System: Musca domestica Snaidm
# measurement-notes: Topical LD50 to adult female SNAIDM houseflies
# test-context: synergistic ratio: LD50 alone/LD50 synergized with piperonyl butoxide
Grouping rule (SR, Musca domestica Snaidm): I (below 4), II (4 to below 8), III (8 or more)

[[record]]
compound = "COc1ccc(C(Nc2ccc(Cl)cc2)C(Cl)(Cl)Cl)cc1 (stereo not drawn)"
label_value = "I"

[[record]]
compound = "Clc1ccc(NC(c2ccc(Cl)cc2)C(Cl)(Cl)Cl)cc1 (stereo not drawn)"
label_value = "III"

[[record]]
compound = "COc1ccc(NC(c2ccc(N(C)C)cc2)C(Cl)(Cl)Cl)cc1 (stereo not drawn)"
label_value = "III"

[[record]]
compound = "CCOc1ccc(C(Nc2ccc(OC)cc2)C(Cl)(Cl)Cl)cc1 (stereo not drawn)"
label_value = "II"

[[record]]
compound = "COc1ccc(NC(c2ccc(Cl)cc2)C(Cl)(Cl)Cl)cc1 (stereo not drawn)"
label_value = "II"


Which bin should I file CCOc1ccc(NC(c2ccc(Cl)cc2)C(Cl)(Cl)Cl)cc1 (stereo not drawn) under? II

Same lookup for CCOc1ccc(NC(c2ccc3c(c2)OCO3)C(Cl)(Cl)Cl)cc1 (stereo not drawn) , please. II

Same lookup for CCOc1ccc(NC(c2ccc(OCC)cc2)C(Cl)(Cl)Cl)cc1 (stereo not drawn) , please. I

Same lookup for CCOc1ccc(NC(c2ccc(OC)cc2)C(Cl)(Cl)Cl)cc1 (stereo not drawn) , please. II

----------
# measurement-notes: Model ecosystem: distribution, ecological magnification and Biodegradability Index
# test-context: Oedogonium (algae); 33 days; 5.0 mg 3H-ethoxyaniline to Sorghum
endpoint-label: Concentration of ethoxyaniline equivalents in Oedogonium (algae) (ppm)
Only the number, expressed in ppm, is required.

[[record]]
compound = "CCOc1ccc(NC(c2ccc(O)cc2)C(Cl)(Cl)Cl)cc1 (centres unmarked)"
measurement = 0.43

[[record]]
compound = "CCOc1ccc(NC(c2ccc(OCC)cc2)C(Cl)(Cl)Cl)cc1 (centres unmarked)"
measurement = 1.09

[[record]]
compound = "CCOc1ccc(N)cc1"
measurement = 0.42

[[record]]
compound = "CCOc1ccc(C(=O)O)cc1"
measurement = 0.38


// lookup Concentration of ethoxyaniline equivalents in Oedogonium (algae) for CCOc1ccc(C(=O)C(Cl)Cl)cc1 [C2 H5 OC6 H4 C(O)CHCl2, p-ethoxydichloroacetophenone] 0.3

----------
# Test system: Phormia regina
# measurement-notes: whole plant or invertebrate
# test-context: synergized with piperonyl butoxide; topical
Grouping rule (Topical LD50, Phormia regina, with pb): low-valued: < 20 μg per g; mid-valued: ≥ 20 μg per g and < 30 μg per g; high-valued: ≥ 30 μg per g

Past entries and their recorded results:
[[record]]
compound = "CN(C)c1ccc(C(Nc2ccc([N+](=O)[O-])cc2)C(Cl)(Cl)Cl)cc1 (centres unmarked) [XXVI]"
subject_of_test = "Phormia regina"
label_value = "high-valued"

[[record]]
compound = "Cc1ccc(C(Nc2ccc(Cl)cc2)C(Cl)(Cl)Cl)cc1 (centres unmarked) [Compound XV]"
subject_of_test = "Phormia regina"
label_value = "high-valued"

[[record]]
compound = "COc1ccc(C(Nc2ccc(C3CCCCC3)cc2)C(Cl)(Cl)Cl)cc1 (centres unmarked) [XXVII]"
subject_of_test = "Phormia regina"
label_value = "high-valued"


Okay, next one:
Which bin should I file CCOc1ccc(NC(c2ccccc2OCC)C(Cl)(Cl)Cl)cc1 (centres unmarked) [XX] under? high-valued
